Cited source: ChEMBL document CHEMBL4145472

Molecular target: Acetylcholinesterase (Homo sapiens)
Sequence (P22303 whole entry): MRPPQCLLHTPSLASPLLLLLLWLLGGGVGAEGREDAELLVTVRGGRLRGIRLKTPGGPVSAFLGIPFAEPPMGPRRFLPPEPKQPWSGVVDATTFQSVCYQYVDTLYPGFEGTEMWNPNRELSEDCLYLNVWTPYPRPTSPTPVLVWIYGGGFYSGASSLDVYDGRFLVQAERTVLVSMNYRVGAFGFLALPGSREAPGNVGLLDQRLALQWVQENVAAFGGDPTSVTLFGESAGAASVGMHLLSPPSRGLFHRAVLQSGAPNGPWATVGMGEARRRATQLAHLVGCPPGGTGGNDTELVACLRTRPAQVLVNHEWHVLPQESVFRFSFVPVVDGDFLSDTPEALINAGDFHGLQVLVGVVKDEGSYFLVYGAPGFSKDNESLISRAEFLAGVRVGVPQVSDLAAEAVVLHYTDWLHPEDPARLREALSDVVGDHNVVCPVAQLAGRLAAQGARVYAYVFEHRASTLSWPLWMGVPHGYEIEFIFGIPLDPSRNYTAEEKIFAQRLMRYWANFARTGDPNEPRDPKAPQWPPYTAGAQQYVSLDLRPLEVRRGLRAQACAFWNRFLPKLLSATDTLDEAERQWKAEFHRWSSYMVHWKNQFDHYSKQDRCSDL
Rule: measured IC50 below 100 nM gets t; anything equal to or greater than 100 nM gets f.

| Molecule | Label Class |
| --- | --- |
| COc1ccc2c(c1)CCC(CC1C=CN(Cc3ccccc3F)C=C1C(C)=O)C2=O (stereo not given) | f |
| COc1ccc2c(c1)CCC(CC1C=CN(Cc3ccc(Cl)cc3)C=C1C(C)=O)C2=O (stereo not given) | f |
| COc1ccc2c(c1)CCC(Cc1cc[n+](Cc3ccccc3C)cc1C(F)(F)F)C2=O (stereo not given) | f |
| COc1ccc2c(c1)CCC(CC1C=CN(Cc3ccc(C)cc3)C=C1C(C)=O)C2=O (stereo not given) | f |
| COc1cc2c(cc1OC)C(=O)C(Cc1cc[n+](Cc3nc4ccccc4o3)cc1C(N)=O)C2 (stereo not given) | f |
| COc1ccc(C(=O)CCC2C=CN(Cc3cccc(Cl)c3)C=C2C#N)cc1OC (stereo not given) | f |
| CC(=O)c1c[n+](Cc2cccc(Cl)c2)ccc1CC1Cc2cc(F)ccc2C1=O (stereo not given) | f |
| COc1ccc2c(c1)CCC(Cc1cc[n+](Cc3ccccc3Cl)cc1C(C)=O)C2=O (stereo not given) | t |
| COc1ccc(C(=O)CCc2cc[n+](Cc3cccc(Cl)c3)cc2C(=O)O)cc1OC | t |
| COc1cc2c(cc1O)C(=O)C(Cc1cc[n+](Cc3cccc(Cl)c3)cc1C(C)=O)C2 (stereo not given) | t |
| CC(=O)c1c[n+](Cc2ccccc2C)ccc1CC1Cc2cc(OCC(F)(F)F)ccc2C1=O (stereo not given) | t |
| COc1cc2c(cc1OC)C(=O)C(Cc1cc[n+](Cc3ccc(S(N)(=O)=O)cc3)cc1C(N)=O)C2 (stereo not given) | f |
| COc1cc2c(cc1OC)C(=O)C(CC1C=CN(Cc3ccccc3)C=C1C(C)=O)CC2 (stereo in doubt; 24a-C) | f |
| CCC[n+]1ccc(CC2CCc3cc(OC)ccc3C2=O)c(C(C)=O)c1 (stereo not given) | f |
| COc1ccc2c(c1)CCC(CC1C=CN(Cc3cccc(C(F)(F)F)c3)C=C1C(C)=O)C2=O (stereo not given) | f |
| COc1cc2c(cc1OC)C(=O)C(Cc1cc[n+](CCc3ccccc3)cc1C(N)=O)C2 (stereo not given) | f |
| COc1cc2c(cc1OC)C(=O)C(CC1C=CN(Cc3ccccc3)C=C1C(C)=O)CC2 (stereo in doubt; 24a-D) | f |
| COc1ccc2c(c1)CCC(CC1C=CN(Cc3ccccc3C)C=C1C(N)=O)C2=O (stereo not given) | f |
| COc1ccc(C(=O)CCc2cc[n+](Cc3cccc(Cl)c3)cc2C(C)=O)cc1OC | f |
| COc1cc2c(cc1OC)C(=O)C(CCCc1cc[n+](Cc3cccc(Cl)c3)cc1C(N)=O)C2 (stereo not given) | f |
| COc1ccc2c(c1)CCC(CC1C=CN(Cc3cccc(C)c3)C=C1C(C)=O)C2=O (stereo not given) | f |
| COc1cc2c(cc1OC)C(=O)C(CC1C=CN(Cc3cccc(Cl)c3)C=C1C(N)=O)C2 (stereo in doubt; 23h-A) | f |
| COc1ccc(C(=O)CCc2cc[n+](Cc3cccc(Cl)c3)cc2C#N)cc1OC | t |
| COc1ccc2c(c1)CCC(CC1C=CN(Cc3ccccc3Cl)C=C1C(C)=O)C2=O (stereo not given) | f |
| COc1cc2c(cc1OC)C(=O)C(CC1C=CN(Cc3ccccc3)C=C1C(C)=O)CC2 (stereo in doubt; 24a-B) | f |
| COc1cc2c(cc1OC)C(=O)C(CC1C=CN(Cc3cccc(Cl)c3)C=C1C(N)=O)C2 (stereo in doubt; 23h-B) | f |
| COC(=O)c1ccccc1C[n+]1ccc(CC2Cc3cc(OC)c(OC)cc3C2=O)c(C(=O)Oc2c(Cl)cc(Cl)cc2Cl)c1 (stereo not given) | t |
| COc1cc2c(cc1OC)C(=O)C(Cc1cc[n+](Cc3cccc(Cl)c3)cc1C(C)=O)CC2 (stereo not given) | t |
| CC(=O)C1=CN(Cc2cccc(Cl)c2)C=CC1CC1Cc2cc(F)ccc2C1=O (stereo not given) | f |
| COc1ccc2c(c1)CCC(Cc1cc[n+](Cc3ccccc3C)cc1C(N)=O)C2=O (stereo not given) | f |
| COc1ccc(C(=O)CCc2cc[n+](Cc3cccc(Cl)c3)cc2C(N)=O)cc1OC | f |
| COc1ccc(C(=O)CCc2cc[n+](Cc3ccccc3C(F)(F)F)cc2C#N)cc1OC | f |
| COc1cc2c(cc1OC)C(=O)C(Cc1cc[n+](Cc3cccc(O)c3)cc1C(N)=O)C2 (stereo not given) | f |
| COc1ccc(C(=O)CCCCc2cc[n+](Cc3cccc(Cl)c3)cc2C(N)=O)cc1OC | f |
| COc1ccc2c(c1)CCC(Cc1cc[n+](CC3CCCCC3)cc1C(C)=O)C2=O (stereo not given) | f |
